# composite Z-score per entry
- ASSAY METHOD TEXT: probe aXIP binding to arrayed compounds – biochemical, NeuroSMM set, 635/667 nm fluorescence, primary screen (AID 1119);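 further: probe is the protein aXip251-270 applied at 1 µg/mL to compound-printed slides; binding of probe to printed compounds measured as 667 nm fluorescence plus signal to noise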
- REPORTED CONDITIONS: small-molecule microarray, higher = more signal, called active from +8 up or from −8 down
The source made the active and inactive calls.
PARAMETER: composite Z-score

# COMPOUND, PARAMETER, RESULT
rows = [
    ("CC(C)=CCCC(C)=CC(O)C1C=CC2C(=O)NC(=O)C2N1Nc1ccccn1 (stereo not given)", "composite Z-score", "0.992 (inactive)"),
    ("COc1cc(OC)c(C(O)C2C=CC3C(=O)N(c4ccccc4)C(=O)C3N2Nc2ccc(C(C)C)cc2)cc1Br (stereo not given)", "composite Z-score", "-0.382 (inactive)"),
    ("C=CC1c2cc(O)c(OC)cc2CCN1C (stereo not given)", "composite Z-score", "0.694 (inactive)"),
    ("COCCOC(=O)N1C(=O)[C@@]2(c3ccccc31)[C@H](C(=O)N1CCN(c3ncccn3)CC1)[C@H]1C(=O)O[C@H](c3ccccc3)[C@H](c3ccccc3)N1[C@@H]2c1ccccc1OCCO", "composite Z-score", "0.196 (inactive)"),
    ("CN1C(=O)C2C=CC(C(O)c3ccc(-c4ccccc4)s3)N(NC(=O)OC(C)(C)C)C2C1=O (stereo not given)", "composite Z-score", "0.43 (inactive)"),
    ("C=C(CCCC)/C(=C/C[C@H](OC(=O)c1ccncc1)c1cccc(OCCO)c1)c1cnc2ccccc2c1", "composite Z-score", "-0.12 (inactive)"),
    ("C=C(COC)/C(=C/C[C@@H](OC(C)=O)c1ccccc1OCCO)c1cnc2ccccc2c1", "composite Z-score", "0.72 (inactive)"),
    ("O=C(NC1CC1)[C@@H]1c2ccccc2C(=O)N(Cc2ccc(OC(F)(F)F)cc2)[C@H]1c1ccc(CO)cc1", "composite Z-score", "0.061 (inactive)"),
    ("Cc1ccc(S[C@]2(C(=O)NCC(F)(F)F)CC(=O)N(Cc3ccccc3C(F)(F)F)[C@@H]2c2ccc(CO)cc2)cc1", "composite Z-score", "0.0348 (inactive)"),
    ("COC(=O)[C@@]1(Cc2ccc(OC)cc2)[C@H]2c3cc(C(=O)N4CCCC4)n(CCn4cc([N+](=O)[O-])nc4C)c3C[C@H]2CN1C(=O)c1ccccc1", "composite Z-score", "0.146 (inactive)"),
    ("CC(=O)c1ccc(C(O)C2C=CC3C(=O)N(c4ccccc4)C(=O)C3N2Nc2ccc(C(C)C)cc2)cc1 (stereo not given)", "composite Z-score", "-0.275 (inactive)"),
    ("NCCCCCCNC(=O)[C@@H]1C[C@@H]2C(=O)N3CCC[C@H]3C(=O)N2[C@@H]1c1cccc(OCCO)c1", "composite Z-score", "2.71 (inactive)"),
    ("COc1cc(C(O)C2C=CC3C(=O)N(c4ccccc4)C(=O)C3N2Nc2ccccc2)cc(OC)c1OC (stereo not given)", "composite Z-score", "0.328 (inactive)"),
    ("O=C1[C@H]2C=C(I)[C@H](C[C@@H]2OCCCCCCO)[C@@]12CO2", "composite Z-score", "0.047 (inactive)"),
    ("COCCOC(=O)N1C(=O)[C@@]2(c3cc(C#CCCO)ccc31)[C@H](C(N)=O)[C@H]1C(=O)O[C@H](c3ccccc3)[C@H](c3ccccc3)N1[C@@H]2c1ccccc1OCCO", "composite Z-score", "0.689 (inactive)"),
    ("COc1ccc([Si](C)(C)[C@@H]2[C@@H](CC(=O)N(CCO)Cc3ccccc3)O[C@]3(C(=O)N(Cc4ccc(I)cc4)c4ccccc43)[C@H]2C)cc1", "composite Z-score", "0.317 (inactive)"),
    ("COCCOC(=O)N1C(=O)[C@@]2(c3cc(C#CC4(O)CCCCCC4)ccc31)[C@H](c1ccc(O)cc1)N1[C@H](c3ccccc3)[C@H](c3ccccc3)OC(=O)[C@H]1[C@@H]2C(=O)N1CCCCCCC1", "composite Z-score", "-0.0498 (inactive)"),
    ("CCCCC(O)C1C=CC2C(=O)N(c3ccccc3)C(=O)C2N1Nc1ccc(C#N)cc1 (stereo not given)", "composite Z-score", "0.22 (inactive)"),
    ("COC(=O)[C@@]1(Cc2ccccc2)[C@H]2c3cc(C(=O)N4CCCC4)n(Cc4ccc(OC)c(OC)c4)c3C[C@H]2CN1C(=O)c1ccccc1", "composite Z-score", "0.651 (inactive)"),
    ("CC(C)OC(=O)CC(=O)CC(O)c1cccc([N+](=O)[O-])c1 (stereo not given)", "composite Z-score", "-0.144 (inactive)"),
    ("COc1cc(CO)cc(I)c1O[C@H]1C=C(C(=O)NCCO)C[C@@H](NC2CCCCCC2)[C@@H]1O", "composite Z-score", "-0.228 (inactive)"),
    ("O=C(NCC(O)CO)C1N=C(c2ccc(OCCCO)cc2)N(c2ccccc2)O1 (stereo not given)", "composite Z-score", "-0.226 (inactive)"),
    ("COC(=O)[C@@]1(Cc2ccc(F)cc2)[C@H]2c3cc(C(=O)N(C)C)n(C)c3C[C@H]2CN1C(=O)c1ccccc1", "composite Z-score", "0.343 (inactive)"),
    ("C[C@@H]1NC(=O)C([C@@H](C)OCc2ccccc2)NC(=O)[C@@]23C(=O)N[C@@H](Cc4ccccc4)C2[C@H](C)[C@@]2(C)O[C@H]2C3/C=C/C/C=C\\CNC1=O (stereo not given in full)", "composite Z-score", "2.08 (inactive)"),
    ("CCOC(=O)C1=C[C@@H](C(C)(C)C)N(S(=O)(=O)c2ccc(C)cc2)[C@H]1c1ccc(C#N)cc1", "composite Z-score", "-0.795 (inactive)"),
    ("[N-]=[N+]=NCc1ccccc1[C@@H]1OC(c2ccc(OCCCO)cc2)=N[C@]1(Cc1ccccc1N=[N+]=[N-])C(=O)NCC(O)CO (stereo not given in full)", "composite Z-score", "0.71 (inactive)"),
    ("COCC(=C=CC[C@H](O)c1ccccc1OCCO)C[C@H](O)COCc1ccccc1", "composite Z-score", "0.0117 (inactive)"),
    ("CCOC(=O)C[C@H]1[C@H](OC(=O)c2ccccc2-c2ccccc2)[C@@H](NC(=O)C2CCCCC2)c2cc(OCCCO)ccc2N1C(=O)c1ccc2ccccc2n1", "composite Z-score", "0.0805 (inactive)"),
    ("O=C(NC1CC1)[C@@H]1c2ccccc2C(=O)N(Cc2cc(C(F)(F)F)cc(C(F)(F)F)c2)[C@H]1c1ccc(CO)cc1", "composite Z-score", "-0.563 (inactive)"),
    ("O=C(NCCN1CCOCC1)[C@@H]1c2ccccc2C(=O)N(Cc2ccccc2C(F)(F)F)[C@H]1c1ccc(CO)cc1", "composite Z-score", "-0.141 (inactive)"),
]
